A short record of MIC observed with E. coli AG100A follows.

Past entries and their recorded results:
| MOLECULE | MIC |
| --- | --- |
| O=C(O)c1cccc2c1OB(O)[C@@H](NC(=O)[C@H](NC(=O)N1CCCCC1=O)c1ccc(P(=O)(O)O)cc1)C2 [Example 37] | 32 to 64 µg/mL |
| CS(=O)(=O)N1CCN(C(=O)N[C@@H](C(=O)N[C@H]2Cc3ccc(F)c(C(=O)O)c3OB2O)c2ccc(P(=O)(O)O)c(F)c2F)C1=O [Example 16] | 32 to 64 µg/mL |
| O=C(N[C@H](C(=O)N[C@H]1Cc2cccc(C(=O)O)c2OB1O)c1ccc(P(=O)(O)O)cc1)c1cnc2ccnn2c1 (single isomer, unassigned) [Example 186] | > 128 µg/mL |

Find MIC (E. coli AG100A) for the entry O=C(O)c1c(F)ccc2c1OB(O)[C@@H](NC(=O)[C@H](NC(=O)N1CCN(Cc3ccc(O)c(O)c3Cl)C(=O)C1=O)c1ccc(P(=O)(O)O)cc1)C2 (single isomer, unassigned) [Example 160]
< 1 µg/mL

Find MIC (E. coli AG100A) for the entry O=C(N[C@H](C(=O)N[C@H]1Cc2cccc(C(=O)O)c2OB1O)c1ccc(P(=O)(O)O)cc1)c1ccc(C(F)(F)F)cn1 (single isomer, unassigned) [Example 192]
32 to 64 µg/mL

Find MIC (E. coli AG100A) for the entry O=C(O)c1cccc2c1OB(O)[C@@H](NC(=O)C(NC(=O)N1CCCC1=O)c1ccc(P(=O)(O)O)cc1)C2 (stereo partly drawn) [Example 57]
32 to 64 µg/mL

Find MIC (E. coli AG100A) for the entry CCN1CCN(C(=O)NC(C(=O)N[C@H]2Cc3cccc(C(=O)O)c3OB2O)c2ccc(P(=O)(O)O)cc2)C1=O (stereo partly drawn) [Example 42]
8 to 16 µg/mL

Find MIC (E. coli AG100A) for the entry O=C(O)c1c(F)ccc2c1OB(O)[C@@H](NC(=O)C(NC(=O)N1CCN(Cc3ccc(O)c(O)c3Cl)C(=O)C1=O)c1ccc(P(=O)(O)O)cc1)C2 (stereo partly drawn) [Example 8]
< 1 µg/mL

Find MIC (E. coli AG100A) for the entry O=C(O)c1cccc2c1OB(O)[C@@H](NC(=O)[C@@H](NC(=O)c1ccn[nH]c1=O)c1ccc(P(=O)(O)O)cc1)C2 (single isomer, unassigned) [Example 177]
> 128 µg/mL

Find MIC (E. coli AG100A) for the entry CC(C)(C)C(=O)NC(C(=O)N[C@H]1Cc2cccc(C(=O)O)c2OB1O)c1ccc(P(=O)(O)O)cc1 (stereo partly drawn) [Example 29]
> 128 µg/mL

Find MIC (E. coli AG100A) for the entry O=C(O)c1cccc2c1OB(O)[C@@H](NC(=O)[C@H](NC(=O)N1CCNC1=O)c1ccc(P(=O)(O)O)cc1)C2 [Example 40]
8 to 16 µg/mL

Find MIC (E. coli AG100A) for the entry CS(=O)(=O)N1CCN(C(=O)NC(C(=O)N[C@H]2Cc3cccc(C(=O)O)c3OB2O)c2ccc(P(=O)(O)O)c(F)c2)C1=O (stereo partly drawn) [Example 12]
8 to 16 µg/mL

---

Measured MIC by item
system: B. thailandensis ATCC 700388; experiment: microbe, parasite or virus in culture; type: cell-based; settings: Burkholderia thailandensis, ATCC700388, read-out: Minimum inhibitory concentration (MIC), B. thailandensis ATCC 700388

Past entries and their recorded results:
| COMPOUND | OBSERVED_PROPERTY | EXPERIMENTAL_VALUE |
| --- | --- | --- |
| O=C(NCCCS(=O)(=O)N1CCN(C(=O)NC(C(=O)N[C@H]2Cc3ccc(F)c(C(=O)O)c3OB2O)c2cc(F)c(O)c(O)c2Cl)C1=O)c1ccccc1 (some centres unmarked) [Example 268] | MIC | > 128 µg/mL |
| O=C(NCCN1CCN(C(=O)NC(C(=O)N[C@H]2Cc3ccc(F)c(C(=O)O)c3OB2O)c2ccc(P(=O)(O)O)cc2)C(=O)C1=O)c1ccc(O)c(O)c1Cl (some centres unmarked) [Example 120] | MIC | < 1 µg/mL |
| Cc1cnccc1C(=O)NCCCN1CCN(C(=O)NC(C(=O)N[C@H]2Cc3ccc(F)c(C(=O)O)c3OB2O)c2cc(F)c(O)c(O)c2Cl)C(=O)C1=O (some centres unmarked) [Example 297] | MIC | 2 to 4 µg/mL |
| O=C(NCCCN1CCN(C(=O)NC(C(=O)N[C@H]2Cc3ccc(F)c(C(=O)O)c3OB2O)c2cc(F)c(O)c(O)c2Cl)C(=O)C1=O)c1nccs1 (some centres unmarked) [Example 211] | MIC | 2 to 4 µg/mL |

Find MIC (B. thailandensis ATCC 700388) for the entry O=C(O)c1c(F)ccc2c1OB(O)[C@@H](NC(=O)C(NC(=O)N1CCN(C3CCN(C(=O)Nc4ccc(F)c(O)c4F)CC3)C(=O)C1=O)c1cc(F)c(O)c(O)c1Cl)C2 (some centres unmarked) [Example 486]
2 to 4 µg/mL

Find MIC (B. thailandensis ATCC 700388) for the entry O=C(NCCN1CCN(C(=O)NC(C(=O)N[C@H]2Cc3ccc(F)c(C(=O)O)c3OB2O)c2cc(F)c(O)c(O)c2Cl)C1=O)c1ccc(O)cc1 (some centres unmarked) [Example 243]
2 to 4 µg/mL

Find MIC (B. thailandensis ATCC 700388) for the entry O=C(NCCCS(=O)(=O)N1CCN(C(=O)NC(C(=O)N[C@H]2Cc3ccc(F)c(C(=O)O)c3OB2O)c2cc(F)c(O)c(O)c2Cl)C1=O)c1ccc(O)cc1 (some centres unmarked) [Example 269]
> 128 µg/mL
